# TARGET OR SYSTEM: calcium channel (Cavia porcellus)
# Construct: Longitudinal smooth muscle segments of 2 cm length were mounted under a resting tension; from tissue; host or cells: ileal longitudinal smooth muscle segments of male albino guinea pigs
# Sequence (O35505 whole entry): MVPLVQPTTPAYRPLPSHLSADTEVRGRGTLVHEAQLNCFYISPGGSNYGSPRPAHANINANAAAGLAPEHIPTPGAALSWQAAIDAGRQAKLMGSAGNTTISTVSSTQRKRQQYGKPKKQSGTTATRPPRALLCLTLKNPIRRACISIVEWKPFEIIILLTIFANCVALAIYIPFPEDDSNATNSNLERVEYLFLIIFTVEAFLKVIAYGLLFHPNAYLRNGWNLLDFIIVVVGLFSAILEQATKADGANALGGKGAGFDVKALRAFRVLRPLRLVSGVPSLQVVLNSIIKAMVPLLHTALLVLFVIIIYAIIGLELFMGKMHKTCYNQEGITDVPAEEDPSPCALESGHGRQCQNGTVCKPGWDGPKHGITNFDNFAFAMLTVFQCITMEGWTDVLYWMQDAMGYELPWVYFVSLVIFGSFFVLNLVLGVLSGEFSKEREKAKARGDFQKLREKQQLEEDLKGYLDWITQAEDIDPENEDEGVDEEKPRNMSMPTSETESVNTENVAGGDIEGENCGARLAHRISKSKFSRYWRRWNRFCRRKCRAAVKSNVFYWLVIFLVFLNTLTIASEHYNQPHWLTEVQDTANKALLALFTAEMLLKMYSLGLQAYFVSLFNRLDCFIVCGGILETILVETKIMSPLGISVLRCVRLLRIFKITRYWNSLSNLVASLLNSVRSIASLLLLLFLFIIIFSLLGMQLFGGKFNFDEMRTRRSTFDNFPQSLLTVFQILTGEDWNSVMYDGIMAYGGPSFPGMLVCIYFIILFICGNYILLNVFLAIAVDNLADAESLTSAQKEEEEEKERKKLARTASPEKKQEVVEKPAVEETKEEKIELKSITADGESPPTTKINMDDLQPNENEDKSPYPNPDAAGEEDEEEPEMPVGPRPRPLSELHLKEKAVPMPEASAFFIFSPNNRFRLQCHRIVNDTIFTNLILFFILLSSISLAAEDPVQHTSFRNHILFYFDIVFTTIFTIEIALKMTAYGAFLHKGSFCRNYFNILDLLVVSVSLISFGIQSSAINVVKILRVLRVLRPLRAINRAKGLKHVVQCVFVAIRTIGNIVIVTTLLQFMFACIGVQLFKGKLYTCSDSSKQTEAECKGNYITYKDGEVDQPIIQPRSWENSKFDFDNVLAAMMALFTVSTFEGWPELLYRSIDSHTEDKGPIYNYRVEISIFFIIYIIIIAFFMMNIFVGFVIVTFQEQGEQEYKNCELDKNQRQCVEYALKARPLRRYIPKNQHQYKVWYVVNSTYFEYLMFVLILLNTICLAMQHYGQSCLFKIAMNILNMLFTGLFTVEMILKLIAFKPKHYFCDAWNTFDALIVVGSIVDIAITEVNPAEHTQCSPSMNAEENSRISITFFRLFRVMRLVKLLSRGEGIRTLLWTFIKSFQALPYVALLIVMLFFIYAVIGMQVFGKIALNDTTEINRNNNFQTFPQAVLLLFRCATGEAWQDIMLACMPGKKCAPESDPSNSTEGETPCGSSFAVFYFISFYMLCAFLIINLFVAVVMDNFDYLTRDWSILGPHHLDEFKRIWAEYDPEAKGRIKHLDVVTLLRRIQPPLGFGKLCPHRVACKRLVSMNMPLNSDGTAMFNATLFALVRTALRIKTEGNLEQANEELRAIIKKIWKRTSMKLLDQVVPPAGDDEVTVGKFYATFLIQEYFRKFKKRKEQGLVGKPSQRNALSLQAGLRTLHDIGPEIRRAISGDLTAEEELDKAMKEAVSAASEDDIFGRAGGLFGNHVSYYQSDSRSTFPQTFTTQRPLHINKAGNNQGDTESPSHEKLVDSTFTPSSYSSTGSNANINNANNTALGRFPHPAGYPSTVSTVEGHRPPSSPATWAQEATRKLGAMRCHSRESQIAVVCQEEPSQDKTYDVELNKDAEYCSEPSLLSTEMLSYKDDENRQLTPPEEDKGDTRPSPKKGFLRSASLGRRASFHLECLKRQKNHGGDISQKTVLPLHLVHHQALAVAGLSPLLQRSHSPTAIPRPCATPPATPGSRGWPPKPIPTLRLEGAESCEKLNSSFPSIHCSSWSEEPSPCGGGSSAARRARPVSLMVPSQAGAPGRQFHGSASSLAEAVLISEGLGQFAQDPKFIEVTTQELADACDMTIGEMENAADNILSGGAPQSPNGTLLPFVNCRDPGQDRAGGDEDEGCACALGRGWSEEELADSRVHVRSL
# EXPERIMENT NOTES: Calcium channel antagonist activity: inhibition of muscarinic receptor-mediated Ca2+-dependent contraction (carbachol) of guinea pig ileal longitudinal smooth muscle
# Type: cell-based
# RUN CONDITIONS: guinea pig ileal longitudinal smooth muscle, carbachol, 37° C., triplicate; read-out: calcium channel antagonist act., inhib. act. on contractile response to CD ID50
pIC50: −log10 of the molar value.
OBSERVED PROPERTY: pIC50

{"columns": ["MOLECULE", "OBSERVED PROPERTY", "VALUE OBSERVED"],
 "data": [
  ["COC(=O)C1=C(C)NC(C)=C(C(=O)OCCCCCCCc2cc(C)no2)C1c1cccc([N+](=O)[O-])c1 (centres unmarked) [Example 1]", "pIC50", 8.42],
  ["COC(=O)C1=C(C)NC(C)=C(C(=O)OCCCCCCS(=O)(=O)c2nc(C)cs2)C1c1cccc([N+](=O)[O-])c1 (centres unmarked) [Example 19]", "pIC50", 8.24],
  ["COC(=O)C1=C(C)NC(C)=C(C(=O)OCCCCCCCc2nc(C)cs2)C1c1cccc(Cl)c1 (centres unmarked) [Example 15]", "pIC50", 8.20],
  ["COC(=O)C1=C(C)NC(C)=C(C(=O)OCCCCCCCc2cc(C)no2)C1c1cccc(C(F)(F)F)c1 (centres unmarked) [Example 3]", "pIC50", 8.29],
  ["COC(=O)C1=C(C)NC(C)=C(C(=O)OCCCCCCn2nc(C)cc2C)C1c1cccc([N+](=O)[O-])c1 (centres unmarked) [Example 5]", "pIC50", 8.20]
]}

I = COC(=O)C1=C(C)NC(C)=C(C(=O)OCCCCCCSc2nc(C)cs2)C1c1cccc([N+](=O)[O-])c1 (centres unmarked) [Example 18]
II = COC(=O)C1=C(C)NC(C)=C(C(=O)OCCCCCC[S+]([O-])c2nc(C)cs2)C1c1cccc([N+](=O)[O-])c1 (centres unmarked) [Example 20]
III = COC(=O)C1=C(C)NC(C)=C(C(=O)OCCCCCCCc2nc(C)cs2)C1c1cccc(Cl)c1Cl (centres unmarked) [Example 17]
Problem: List from greatest to least pIC50. Labels, requested order.
Result: I, II, III
(I: 8.26, II: 7.81, III: 7.32)
